experiment: AUC (0 to infinity) in Sprague-Dawley rat at 2 mg/kg, iv administered as single dose by UPLC/MS/MS analysis; format: ADME, organism-based; parameters: dose 2 mg/kg, route intravenous, time infinity; conditions: in vivo
Measured Parameter: AUC(0-inf) (ng·h/mL)
Please reply with the bare figure in ng·h/mL and do not write the unit itself.

Look up and report measured AUC(0-inf) for this entry: C=CCc1cc(/C=C/C(=O)c2cccc(N(C)C)c2)c(OC)cc1O
1620

* * *

assay: Cmax in Sprague-Dawley rat at 2 mg/kg, iv administered as single dose by UPLC/MS/MS analysis; assay type: ADME, organism-based; parameters: dose 2 mg/kg, route intravenous; details: in vivo
Measured Parameter: Cmax (ng/mL)
Please reply with the bare figure in ng/mL and do not write the unit itself.

Look up and report measured Cmax for this entry: C=CCc1cc(/C=C/C(=O)c2cccc(N(C)C)c2)c(OC)cc1O
2150
